Give measured IC50 for each item. Keep answers brief.
- Tested on: SKBR3 (PI3Kα-Wild Type) cell line
- EXPERIMENT SUMMARY: HTRF phospho-AKT(S473) cell assay in SKBR3 cells
- Type: cell-based, human
- REPORTED CONDITIONS: Homo sapiens, SK-BR-3; SKBR3 (PI3Kα-Wild Type) cells, HTRF phospho-AKT(S473), 2 hours compound incubation, PDGF-BB stimulated

input: So what does the record say about IC50 for C[C@@H](Nc1ccc(Cl)[nH]c1=O)c1cc(F)cc2c(=O)n(C)c(N3CCOCC3)nc12 ?
output: ≥ 5 µM

input: So what does the record say about IC50 for Cc1cc([C@@H](C)Nc2ccc(Cl)nc2C(=O)NS(C)(=O)=O)c2nc(N3Cc4cn(-c5ccccc5C)nc4C3)n(C)c(=O)c2c1 ?
output: ≥ 5 µM

input: So what does the record say about IC50 for Cc1cc([C@@H](C)Nc2ccc(Cl)nc2C(=O)NS(C)(=O)=O)c2nc(N3Cc4cn(-c5ccccc5)nc4C3)n(C)c(=O)c2c1 ?
output: ≥ 5 µM

input: So what does the record say about IC50 for Cc1cc([C@@H](C)Nc2ccc(Cl)nc2C(=O)NS(C)(=O)=O)c2nc(N3CCO[C@@H](c4cnn(C)c4)C3)n(C)c(=O)c2c1 (relative stereo) ?
output: ≥ 5 µM

input: So what does the record say about IC50 for Cc1cc([C@@H](C)Nc2ccc(Cl)nc2C(=O)NS(C)(=O)=O)c2nc(-c3cncc(F)c3)n(C)c(=O)c2c1 ?
output: 1 to 5 µM

input: So what does the record say about IC50 for Cc1ccc(N[C@H](C)c2cccc3c(=O)n(C)c(N4Cc5ccc(F)cc5C4)nc23)c(C(=O)NS(C)(=O)=O)n1 ?
output: ≥ 5 µM
